experimental-target: T1, MET928 (cMET protein derived from construct 25-928) (human, UniProt P08581 25-928)
T1 construct: MET ectodomain, residues 1-24 are the leader; produced in Lec 8 cells; background text says the ectodomain is furin-cleaved into alpha (25-307) and beta chains; biotinylated form used in selections; also called MET928 extracellular domain; Met extracellular domain
T1 sequence (P08581 25-928): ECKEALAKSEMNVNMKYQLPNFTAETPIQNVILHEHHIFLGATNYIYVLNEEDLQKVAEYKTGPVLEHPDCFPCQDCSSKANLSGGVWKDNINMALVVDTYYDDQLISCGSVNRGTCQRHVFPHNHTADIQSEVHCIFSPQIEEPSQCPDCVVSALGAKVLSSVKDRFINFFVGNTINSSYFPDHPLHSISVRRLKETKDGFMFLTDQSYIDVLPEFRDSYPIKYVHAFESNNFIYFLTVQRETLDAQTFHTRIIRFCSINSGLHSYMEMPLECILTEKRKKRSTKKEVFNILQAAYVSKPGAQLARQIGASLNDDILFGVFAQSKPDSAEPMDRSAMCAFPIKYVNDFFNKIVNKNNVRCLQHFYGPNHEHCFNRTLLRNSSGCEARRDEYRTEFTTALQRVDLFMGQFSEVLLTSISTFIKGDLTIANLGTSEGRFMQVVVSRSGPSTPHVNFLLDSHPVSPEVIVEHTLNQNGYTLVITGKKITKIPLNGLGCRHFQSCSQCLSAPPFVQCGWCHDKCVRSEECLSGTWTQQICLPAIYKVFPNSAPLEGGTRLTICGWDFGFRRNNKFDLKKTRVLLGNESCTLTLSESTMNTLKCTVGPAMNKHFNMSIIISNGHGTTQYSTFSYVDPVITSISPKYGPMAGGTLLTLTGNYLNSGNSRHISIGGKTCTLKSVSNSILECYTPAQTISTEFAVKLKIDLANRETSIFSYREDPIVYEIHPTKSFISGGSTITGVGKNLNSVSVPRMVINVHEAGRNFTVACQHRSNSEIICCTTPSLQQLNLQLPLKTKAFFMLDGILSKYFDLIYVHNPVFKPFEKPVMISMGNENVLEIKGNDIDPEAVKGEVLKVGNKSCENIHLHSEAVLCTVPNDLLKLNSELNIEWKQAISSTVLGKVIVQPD
measurement-description: Biacore SPR, MET-928 on chip, scFv format
In this section, each of the binders is paired with its reported kon.
Provide the reading as a plain figure in M⁻¹ s⁻¹.

{"columns": ["binder", "kon, M⁻¹ s⁻¹"],
 "data": [
  ["110_A10 scFv (6xHis/tri-Flag tags) (scFv, 7A2 derivative, only VH CDR3 changed; not shown: 6xHis/tri-FLAG tags of pSANG10-3F) scFv: QMQLVQSGAEVKKPGAPVKVSCKVSGYTFTDYYMHWVQQAPGKGLEWMGLVDPEDGETIYAEKFQGRVTITADTSTDTAYMELSSLRSEDTAVYYCATDATTPYWGMQTWGQGTLVTVSSLEGGGGSGGGGSGGGASDIQMTQSPSSLSASVGDRVTITCQASQDISNYLNWYQQKPGRAPKVLIYDASNLETGVPSRFSGSGSGTEFTLTISNLRPDDFATYYCQQGDSFPLTFGGGTKVEIK", "9.08e+06"],
  ["110_A01 scFv (6xHis/tri-Flag tags) (scFv, 7A2 derivative, only VH CDR3 changed; also called 110_A1; not shown: 6xHis/tri-FLAG tags of pSANG10-3F) scFv: QMQLVQSGAEVKKPGAPVKVSCKVSGYTFTDYYMHWVQQAPGKGLEWMGLVDPEDGETIYAEKFQGRVTITADTSTDTAYMELSSLRSEDTAVYYCATDATTPYWFPYLWGQGTLVTVSSLEGGGGSGGGGSGGGASDIQMTQSPSSLSASVGDRVTITCQASQDISNYLNWYQQKPGRAPKVLIYDASNLETGVPSRFSGSGSGTEFTLTISNLRPDDFATYYCQQGDSFPLTFGGGTKVEIK", "5.05e+06"]
]}

Next binder, kon to be filled in.
Looking up 110_A12 scFv (6xHis/tri-Flag tags) (scFv, 7A2 derivative, only VH CDR3 changed; not shown: 6xHis/tri-FLAG tags of pSANG10-3F) scFv: QMQLVQSGAEVKKPGAPVKVSCKVSGYTFTDYYMHWVQQAPGKGLEWMGLVDPEDGETIYAEKFQGRVTITADTSTDTAYMELSSLRSEDTAVYYCATDATTPYWFPREWGQGTLVTVSSLEGGGGSGGGGSGGGASDIQMTQSPSSLSASVGDRVTITCQASQDISNYLNWYQQKPGRAPKVLIYDASNLETGVPSRFSGSGSGTEFTLTISNLRPDDFATYYCQQGDSFPLTFGGGTKVEIK , I found its kon recorded as 1.63e+06
